Cited source for all entries: paper PMC5702617

# Target Entity: fibronectin isolated from human plasma (human, UniProt P02751 32-2477, in the fibers 5% of the protein was Cy5-labeled (Cy5-maleimide on the cryptic cysteines at FnIII7 and FnIII15))
# Assay Text: single Fn fiber binding assay (confocal microscopy, intensity ratio peptide-Alexa488 / Fn-Cy5); Fn fibers (95% unlabeled, 5% Cy5-labeled) manually pulled onto a silicone sheet and relaxed to about 7% strain; blocked with BSA; varying concentrations of peptide for 1 h, washed, imaged; ratio at 10 μM set to 1
# Condition Description: both partners purified
No end group written: not given here.
Experimental Endpoint: pKd
A value of pKd is the negative decimal logarithm of a concentration given in moles per litre.

## Task Give a short answer stating reported pKd for {C(Alexa488)}-GQVTTESNLVEFDEESTKGIVTGAVSDHTTVEDTK [FnBPA5-Alexa488] .
## Result 7.55
